Data provenance is ChEMBL document CHEMBL2202954.

# Tested on: NCI-H322M
# ASSAY DETAILS: Cytotoxicity against human NCI-H322M cells assessed as cellular growth at 10 uM by SRB assay
# Assay type: functional
ATTRIBUTE MEASURED: Activity (%)

SMILES NOTATION: O=C(NCCc1ccc(Cl)cc1)c1[nH]c2ccccc2c1Cl
TEST SYSTEM: NCI-H322M
ATTRIBUTE MEASURED: Activity
VALUE MEASURED: 106.64
//
SMILES NOTATION: O=C(Nc1nc2ccc(Cl)cc2s1)c1ccc(Cl)cc1Cl
TEST SYSTEM: NCI-H322M
ATTRIBUTE MEASURED: Activity
VALUE MEASURED: 105.38
//
SMILES NOTATION: Nc1c(C(=O)Nc2ccc(Cl)c(Cl)c2)sc2nc(-c3cccs3)ccc12
TEST SYSTEM: NCI-H322M
ATTRIBUTE MEASURED: Activity
VALUE MEASURED: 95.09
//
SMILES NOTATION: O=C(Nc1ccc(S(=O)(=O)Nc2nccs2)cc1)c1cccs1
TEST SYSTEM: NCI-H322M
ATTRIBUTE MEASURED: Activity
VALUE MEASURED: 104.64
//
SMILES NOTATION: CC1(C)CCc2cc(-c3ccn(S(=O)(=O)c4ccc(Cl)cc4)n3)ccc2O1
TEST SYSTEM: NCI-H322M
ATTRIBUTE MEASURED: Activity
VALUE MEASURED: 94.19
//
SMILES NOTATION: Cc1ccc(NC(=O)c2sc3nc(-c4cccs4)ccc3c2N)cc1C
TEST SYSTEM: NCI-H322M
ATTRIBUTE MEASURED: Activity
VALUE MEASURED: 123.82
